conditions: in isobutanol, 288.15 K
Metric: solubility (mole fraction)
Numbers only.

Query: Please look at this molecule and report its solubility (mole fraction): `Nc1nc(NC2CC2)c2ncn([C@H]3C=C[C@@H](CO)C3)c2n1`
Response: 0.00896

====

details: in acetone, 293.15 K
Metric: solubility (mole fraction)
Give bare numbers.

Query: Please look at this compound and report its solubility (mole fraction): `Nc1nc(NC2CC2)c2ncn([C@H]3C=C[C@@H](CO)C3)c2n1`
Response: 0.00142

====

conditions: in n-pentanol, 313.15 K
Metric: solubility (mole fraction)
One number for each entry.

Query: Please look at this compound and report its solubility (mole fraction): `Nc1nc(NC2CC2)c2ncn([C@H]3C=C[C@@H](CO)C3)c2n1`
Response: 0.0226

====

conditions: in n-pentanol, 308.15 K
Metric: solubility (mole fraction)
Numbers only.

Query: Please look at this molecule and report its solubility (mole fraction): `Nc1nc(NC2CC2)c2ncn([C@H]3C=C[C@@H](CO)C3)c2n1`
Response: 0.0195

====

conditions: in ethyl acetate, 318.15 K
Metric: solubility (mole fraction)
Answers are plain numbers.

Query: Please look at this compound and report its solubility (mole fraction): `Nc1nc(NC2CC2)c2ncn([C@H]3C=C[C@@H](CO)C3)c2n1`
Response: 0.00168

====

settings: in sec-butanol, 298.15 K
Metric: solubility (mole fraction)
Give bare numbers.

Query: Please look at this molecule and report its solubility (mole fraction): `Nc1nc(NC2CC2)c2ncn([C@H]3C=C[C@@H](CO)C3)c2n1`
Response: 0.0118

====

conditions: in water, 288.15 K
Metric: solubility (mole fraction)
Answers are plain numbers.

Query: Please look at this molecule and report its solubility (mole fraction): `Nc1nc(NC2CC2)c2ncn([C@H]3C=C[C@@H](CO)C3)c2n1`
Response: 0.000295

====

conditions: in ethanol, 323.15 K
Metric: solubility (mole fraction)
Give bare numbers.

Query: Please look at this molecule and report its solubility (mole fraction): `Nc1nc(NC2CC2)c2ncn([C@H]3C=C[C@@H](CO)C3)c2n1`
Response: 0.0184

====

conditions: in ethanol, 313.15 K
Metric: solubility (mole fraction)
One number for each entry.

Query: Please look at this compound and report its solubility (mole fraction): `Nc1nc(NC2CC2)c2ncn([C@H]3C=C[C@@H](CO)C3)c2n1`
Response: 0.0142

====

conditions: in sec-butanol, 323.15 K
Metric: solubility (mole fraction)
Give bare numbers.

Query: Please look at this compound and report its solubility (mole fraction): `Nc1nc(NC2CC2)c2ncn([C@H]3C=C[C@@H](CO)C3)c2n1`
Response: 0.0222

====

settings: in methyl acetate, 293.15 K
Metric: solubility (mole fraction)
Give bare numbers.

Query: Please look at this molecule and report its solubility (mole fraction): `Nc1nc(NC2CC2)c2ncn([C@H]3C=C[C@@H](CO)C3)c2n1`
Response: 0.00123

====

conditions: in methanol, 293.15 K
Metric: solubility (mole fraction)

Query: Please look at this compound and report its solubility (mole fraction): `Nc1nc(NC2CC2)c2ncn([C@H]3C=C[C@@H](CO)C3)c2n1`
Response: 0.00965

====

conditions: in n-butanol, 313.15 K
Metric: solubility (mole fraction)
Give bare numbers.

Query: Please look at this compound and report its solubility (mole fraction): `Nc1nc(NC2CC2)c2ncn([C@H]3C=C[C@@H](CO)C3)c2n1`
Response: 0.0177

====

details: in water, 308.15 K
Metric: solubility (mole fraction)
Give bare numbers.

Query: Please look at this compound and report its solubility (mole fraction): `Nc1nc(NC2CC2)c2ncn([C@H]3C=C[C@@H](CO)C3)c2n1`
Response: 0.0005

====

conditions: in water, 318.15 K
Metric: solubility (mole fraction)
Answers are plain numbers.

Query: Please look at this compound and report its solubility (mole fraction): `Nc1nc(NC2CC2)c2ncn([C@H]3C=C[C@@H](CO)C3)c2n1`
Response: 0.000649

====

conditions: in n-propanol, 283.15 K
Metric: solubility (mole fraction)

Query: Please look at this compound and report its solubility (mole fraction): `Nc1nc(NC2CC2)c2ncn([C@H]3C=C[C@@H](CO)C3)c2n1`
Response: 0.0087

====

conditions: in isopropanol, 323.15 K
Metric: solubility (mole fraction)
One number for each entry.

Query: Please look at this compound and report its solubility (mole fraction): `Nc1nc(NC2CC2)c2ncn([C@H]3C=C[C@@H](CO)C3)c2n1`
Response: 0.0123

====

conditions: in sec-butanol, 283.15 K
Metric: solubility (mole fraction)

Query: Please look at this molecule and report its solubility (mole fraction): `Nc1nc(NC2CC2)c2ncn([C@H]3C=C[C@@H](CO)C3)c2n1`
Response: 0.00844

====

settings: in ethyl acetate, 298.15 K
Metric: solubility (mole fraction)
Give bare numbers.

Query: Please look at this compound and report its solubility (mole fraction): `Nc1nc(NC2CC2)c2ncn([C@H]3C=C[C@@H](CO)C3)c2n1`
Response: 0.00102

====

conditions: in n-propanol, 288.15 K
Metric: solubility (mole fraction)
Numbers only.

Query: Please look at this compound and report its solubility (mole fraction): `Nc1nc(NC2CC2)c2ncn([C@H]3C=C[C@@H](CO)C3)c2n1`
Response: 0.00952

====

conditions: in acetone, 298.15 K
Metric: solubility (mole fraction)

Query: Please look at this compound and report its solubility (mole fraction): `Nc1nc(NC2CC2)c2ncn([C@H]3C=C[C@@H](CO)C3)c2n1`
Response: 0.00155

====

settings: in n-propanol, 293.15 K
Metric: solubility (mole fraction)
Answers are plain numbers.

Query: Please look at this compound and report its solubility (mole fraction): `Nc1nc(NC2CC2)c2ncn([C@H]3C=C[C@@H](CO)C3)c2n1`
Response: 0.0107

====

conditions: in acetone, 278.15 K
Metric: solubility (mole fraction)
One number for each entry.

Query: Please look at this molecule and report its solubility (mole fraction): `Nc1nc(NC2CC2)c2ncn([C@H]3C=C[C@@H](CO)C3)c2n1`
Response: 0.00115

====

details: in acetone, 283.15 K
Metric: solubility (mole fraction)
One number for each entry.

Query: Please look at this compound and report its solubility (mole fraction): `Nc1nc(NC2CC2)c2ncn([C@H]3C=C[C@@H](CO)C3)c2n1`
Response: 0.00123

====

details: in isopropanol, 278.15 K
Metric: solubility (mole fraction)
Numbers only.

Query: Please look at this molecule and report its solubility (mole fraction): `Nc1nc(NC2CC2)c2ncn([C@H]3C=C[C@@H](CO)C3)c2n1`
Response: 0.00451

====

details: in water, 323.15 K
Metric: solubility (mole fraction)
One number for each entry.

Query: Please look at this compound and report its solubility (mole fraction): `Nc1nc(NC2CC2)c2ncn([C@H]3C=C[C@@H](CO)C3)c2n1`
Response: 0.000748

====

conditions: in isopropanol, 298.15 K
Metric: solubility (mole fraction)
Numbers only.

Query: Please look at this compound and report its solubility (mole fraction): `Nc1nc(NC2CC2)c2ncn([C@H]3C=C[C@@H](CO)C3)c2n1`
Response: 0.00655

====

settings: in n-pentanol, 288.15 K
Metric: solubility (mole fraction)
Answers are plain numbers.

Query: Please look at this compound and report its solubility (mole fraction): `Nc1nc(NC2CC2)c2ncn([C@H]3C=C[C@@H](CO)C3)c2n1`
Response: 0.012

====

conditions: in isobutanol, 278.15 K
Metric: solubility (mole fraction)
Answers are plain numbers.

Query: Please look at this molecule and report its solubility (mole fraction): `Nc1nc(NC2CC2)c2ncn([C@H]3C=C[C@@H](CO)C3)c2n1`
Response: 0.00772

====

conditions: in n-pentanol, 278.15 K
Metric: solubility (mole fraction)
Numbers only.

Query: Please look at this compound and report its solubility (mole fraction): `Nc1nc(NC2CC2)c2ncn([C@H]3C=C[C@@H](CO)C3)c2n1`
Response: 0.00898

====

details: in n-butanol, 318.15 K
Metric: solubility (mole fraction)
One number for each entry.

Query: Please look at this compound and report its solubility (mole fraction): `Nc1nc(NC2CC2)c2ncn([C@H]3C=C[C@@H](CO)C3)c2n1`
Response: 0.0204

====

settings: in ethanol, 318.15 K
Metric: solubility (mole fraction)
Answers are plain numbers.

Query: Please look at this molecule and report its solubility (mole fraction): `Nc1nc(NC2CC2)c2ncn([C@H]3C=C[C@@H](CO)C3)c2n1`
Response: 0.0162

====

conditions: in isopropanol, 293.15 K
Metric: solubility (mole fraction)
Give bare numbers.

Query: Please look at this compound and report its solubility (mole fraction): `Nc1nc(NC2CC2)c2ncn([C@H]3C=C[C@@H](CO)C3)c2n1`
Response: 0.006

====

conditions: in acetone, 323.15 K
Metric: solubility (mole fraction)
Numbers only.

Query: Please look at this compound and report its solubility (mole fraction): `Nc1nc(NC2CC2)c2ncn([C@H]3C=C[C@@H](CO)C3)c2n1`
Response: 0.00247

====

details: in n-butanol, 278.15 K
Metric: solubility (mole fraction)
One number for each entry.

Query: Please look at this molecule and report its solubility (mole fraction): `Nc1nc(NC2CC2)c2ncn([C@H]3C=C[C@@H](CO)C3)c2n1`
Response: 0.00718
